We begin with a simple list: items and their reported IC50.
TARGET: Human HDAC9 (Homo sapiens, UniProt Q9UKV0)
Construct: amino acids 604-1066 with C-terminal His tag; His (C); host or cells: baculovirus expression system
Sequence (Q9UKV0 604-1066 isoform Q9UKV0-5): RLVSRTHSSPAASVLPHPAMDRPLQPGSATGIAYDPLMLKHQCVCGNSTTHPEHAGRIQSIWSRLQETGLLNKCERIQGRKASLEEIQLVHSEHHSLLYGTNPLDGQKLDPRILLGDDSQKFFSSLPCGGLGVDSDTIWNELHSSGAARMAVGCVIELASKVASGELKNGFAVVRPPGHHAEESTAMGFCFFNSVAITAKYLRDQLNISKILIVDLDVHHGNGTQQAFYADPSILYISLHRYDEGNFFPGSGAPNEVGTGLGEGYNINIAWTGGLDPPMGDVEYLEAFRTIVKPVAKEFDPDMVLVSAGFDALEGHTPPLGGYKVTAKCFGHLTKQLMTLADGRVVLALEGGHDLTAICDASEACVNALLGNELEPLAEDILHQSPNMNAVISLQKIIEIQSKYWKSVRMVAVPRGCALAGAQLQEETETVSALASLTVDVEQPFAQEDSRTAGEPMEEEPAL
ASSAY_OVERVIEW: HDAC9 biochemical assay, class IIa-specific substrate
EXPERIMENTAL_SETUP: read-out: HDAC Isoform IC50 (nM) 9

O=C(O)c1ccc(N(Cc2sc(-c3noc(C(F)(F)F)n3)cc2F)c2cnccn2)nn1: ≤ 10000 nM
O=C(c1cnnc(N(Cc2ccc(-c3noc(C(F)(F)F)n3)s2)c2cnccn2)c1)N1CCC1: ≤ 10000 nM
Fc1ccnc(N(Cc2ccc(-c3noc(C(F)(F)F)n3)s2)c2cnccn2)c1: ≤ 10000 nM
FC(F)(F)c1cncc(N(Cc2ccc(-c3noc(C(F)(F)F)n3)s2)c2cnccn2)n1: ≤ 10000 nM
FC(F)(F)c1nc(-c2ccc(CN(c3cnccn3)c3ccc(-c4ccccc4)nn3)s2)no1: ≤ 10000 nM
Cn1ccc2c(N(Cc3ccc(-c4noc(C(F)(F)F)n4)s3)c3cnccn3)ncnc21: ≤ 10000 nM

Give me measured IC50, please, for this compound: `COc1ncc(N(Cc2ccc(-c3noc(C(F)(F)F)n3)s2)c2cnccn2)cn1`
≤ 1000 nM

Tell me its IC50 given `O=C(c1cnnc(N(Cc2ccc(-c3noc(C(F)(F)F)n3)s2)c2cnccn2)c1)N1CCC(F)(F)CC1` as the entry.
≤ 10000 nM

Please supply the value of reported IC50 for the item `C[C@H]1CCCN1C(=O)c1cnnc(N(Cc2ccc(-c3noc(C(F)(F)F)n3)s2)c2cnccn2)c1`
≤ 10000 nM

Let me know recorded IC50 for `FC(F)(F)c1nc(-c2ccc(CN(c3cncnc3)c3cnccn3)s2)no1` , thanks.
≤ 500 nM

Identify the reported IC50 for the following entry. `COc1cc(N(Cc2ccc(-c3noc(C(F)(F)F)n3)s2)c2cnccn2)ncn1`
≤ 10000 nM

Using the record for `COc1ncncc1N(Cc1ccc(-c2noc(C(F)(F)F)n2)s1)c1cnccn1` , state its measured IC50.
≤ 10000 nM

Report IC50, nothing else, for this compound: `FC(F)(F)c1nc(-c2ccc(CN(c3cnccn3)c3cnccn3)s2)no1`
≤ 10000 nM
